Recorded measurements of solvation free energy, 298 K, one per entry
experimentalProtocol: solvent given as SMILES
conditionInfo: in Cc1ccccc1
reportedEndpoint: solvation free energy, 298 K (kcal/mol)

> print(dat)
                    smilesrepresentation  numericresult
1                    COc1cc(C(C)=O)ccc1O          -10.8
2  COc1cc(C=O)cc(-c2cc(C=O)cc(OC)c2O)c1O          -19.6
3                               c1ccccc1          -4.47

====

Recorded measurements of solvation free energy, 298 K, one per entry
experimentalProtocol: solvent given as SMILES
conditionInfo: in C=CCCCCCCCCCCCCCC
reportedEndpoint: solvation free energy, 298 K (kJ/mol)

> print(dat)
                                   compound              reportedendpoint  numericresult
1  CC12CCC(=O)C=C1CCC1C2C(O)CC2(C)C1CCC2(O)C(=O)C(O)C(CCCCC(N)=O)C(N)=O (centres undefined)  solvation free energy, 298 K           -115
2                                 CCCC(=O)O  solvation free energy, 298 K          -16.5
3                                      CCCO  solvation free energy, 298 K          -12.4
4                                  CCCC(C)C  solvation free energy, 298 K          -13.9
